Target: T1, mutant human CD20 #9 (N163D, N166D) (human, UniProt P11836 1-297)
T1 construct: Stably expressed on MG87 cells
T1 chain: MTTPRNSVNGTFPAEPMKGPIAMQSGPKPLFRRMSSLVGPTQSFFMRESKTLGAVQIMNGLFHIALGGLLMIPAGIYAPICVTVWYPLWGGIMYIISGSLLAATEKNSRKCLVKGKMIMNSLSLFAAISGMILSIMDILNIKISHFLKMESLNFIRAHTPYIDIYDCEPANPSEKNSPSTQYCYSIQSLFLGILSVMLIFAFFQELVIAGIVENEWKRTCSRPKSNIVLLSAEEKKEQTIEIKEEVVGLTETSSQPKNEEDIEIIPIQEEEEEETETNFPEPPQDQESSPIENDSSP
Assay: FACS, mutant-hCD20 MG87 cells; 100%=best antibody
Parameter measured: Percent of Binding to Mutant Human CD20 (%)
Response body: numeric value in %, unit text excluded.

Ask | Return reported Percent of Binding to Mutant Human CD20; argument: 2C11-4 (antibody, V domains shown, Fully human IgG, constant region not specified; also called 2C11-4N) VH: EVQLVESGGGLVQPGRSLRLSCAASGFTFRDYAMHWVRQGPGKGLEWVSGISWNTDYIGYADSVKGRFTISRDNAKNSLYLQMNSLRPEDTALYYCAKDARYGRDNYYGMDVWGQGTTVTVSS VL: EIVLTQSPATLSLSPGERATLSCRASQSVSRYLAWYQQKPGQAPRLLIHDASNRATGIPARFSGSGSGTDFTLTITSLEPEDFVVYYCQQRSDWPITFGQGTRLEIK
Reply | 3

Ask | Moving on to 10E3-17 (antibody, V domains shown, Fully human IgG, constant region not specified; also called 10E3-17N) VH: EVQLVESGGGLVQPGRSLRLSCAASGFTFRDYAMHWVRQVPGKGLEWVSGISWNRGTIGYADSVKGRFTISRDNAKNSLFLQMNSLRADDTALYYCAKDHYYGSGSPYGMDVWGQGTTVTVSS VL: EIVLTQSPATLALSPGERATLSCRASQSVSKYLAWYQQKPGQAPRLLIYDASKRVTGIPGRLSGSGSGTDFTLTISSLEPEDFALYYCQQSSNWPITFGQGTRVEIK
Reply | 4
